- test.target: UniProt Q7Z601
- assay.method.text: Agonist activity at human GPR142 receptor expressed in HEK293 cells assessed as accumulation of inositol phosphate at 30 uM to 1 nM incubated for 1 hr followed by IP1-d2 addition by HTRF assay relative to control
- Type: functional, cell-based
Each entry below lists one item and its recorded Emax value.

molecule | unit.of.measure | Emax
CN(C(=O)c1cccc(C(F)(F)F)c1)[C@@H]1CCC[C@H](c2nnc(-c3cnc4n3CCOC4)[nH]2)C1 | % | 102
Cc1ncn(CC(F)F)c1NC(=O)[C@H]1CCC[C@@H](N(C)C(=O)c2cccc(Cl)c2)C1 | % | 99
Cc1ncn(CC2CC2)c1-c1nnc([C@@H]2C[C@H](N(C)C(=O)c3cccc(C(F)(F)F)c3)CCO2)[nH]1 | % | 123
Cc1ncn(CC#N)c1NC(=O)[C@H]1CCC[C@@H](N(C)C(=O)c2cccc(C(F)(F)F)c2)C1 | % | 96
Cc1ncc(-c2nnc([C@H]3CCC[C@@H](N(C)C(=O)c4cccc(C(F)(F)F)c4)C3)[nH]2)n1C | % | 98
Cc1ncn(C)c1NC(=O)[C@H]1CCC[C@@H](N(C)C(=O)c2cccc(C(F)(F)F)c2)C1 | % | 104
Cc1ncn(CC2CC2)c1NC(=O)[C@H]1CCC[C@@H](N(C)C(=O)c2cccc(C(F)(F)F)c2)C1 | % | 118
Cc1ncn(C)c1-c1nnc([C@H]2CCC[C@@H](N(C)C(=O)c3cccc(Cl)c3)C2)[nH]1 | % | 111

###

- test.target: Probable G-protein coupled receptor 142 (Homo sapiens, UniProt Q7Z601)
- Sequence (Q7Z601 whole entry): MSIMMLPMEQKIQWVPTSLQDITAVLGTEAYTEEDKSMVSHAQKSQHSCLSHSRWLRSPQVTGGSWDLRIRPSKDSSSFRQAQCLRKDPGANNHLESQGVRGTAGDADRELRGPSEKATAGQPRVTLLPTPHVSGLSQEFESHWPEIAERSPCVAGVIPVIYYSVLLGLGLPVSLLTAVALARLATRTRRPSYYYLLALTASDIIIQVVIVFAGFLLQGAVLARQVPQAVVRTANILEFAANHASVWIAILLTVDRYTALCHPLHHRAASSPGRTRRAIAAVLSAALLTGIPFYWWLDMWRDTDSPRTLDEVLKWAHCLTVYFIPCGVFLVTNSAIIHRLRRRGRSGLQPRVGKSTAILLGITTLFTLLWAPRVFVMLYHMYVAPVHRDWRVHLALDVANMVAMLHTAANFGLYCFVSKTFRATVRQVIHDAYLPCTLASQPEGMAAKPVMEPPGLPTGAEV
- assay.method.text: Agonist activity at human GPR142 receptor expressed in HEK293 cells assessed as accumulation of inositol phosphate incubated for 1 hr followed by IP1-d2 addition by HTRF assay
pEC50: −log10 of the molar value.

molecule | pEC50
Cc1ncn(CC(F)(F)F)c1NC(=O)[C@H]1CCC[C@@H](N(C)C(=O)c2cccc(C(F)(F)F)c2)C1 | 7.09
Cc1ncn(CC(F)F)c1NC(=O)[C@H]1CCC[C@@H](N(C)C(=O)c2cccc(Cl)c2)C1 | 6.98
Cc1ncn(C)c1NC(=O)[C@H]1CCC[C@@H](N(C)C(=O)c2cccc(OC(F)(F)F)c2)C1 | 7.15

###

- assay.method.text: Drug metabolism in mouse microsomes assessed as drug turnover at 20 uM measured after 30 mins by LCMS analysis
- Type: ADME, Microsome
- condition.set: read-out: Drug metabolism
Below, each entry is listed with its recorded metabolised at 0.5 h, 20 µM.

molecule | unit.of.measure | metabolised at 0.5 h, 20 µM
Cc1ncn(CC2CC2)c1NC(=O)[C@H]1CCC[C@@H](N(C)C(=O)c2cccc(C(F)(F)F)c2)C1 | % | 97
Cc1ncn(C(C)C)c1NC(=O)[C@H]1CCC[C@@H](N(C)C(=O)c2cccc(C(F)(F)F)c2)C1 | % | 76
CN(C(=O)c1cccc(C(F)(F)F)c1)[C@@H]1CCC[C@H](c2nnc(-c3cnc4n3CCOC4)[nH]2)C1 | % | 70
Cc1ncn(CC(F)F)c1NC(=O)[C@H]1CCC[C@@H](N(C)C(=O)c2cccc(C(F)(F)F)c2)C1 | % | 64
Cc1ncn(CC2CN(C)C2)c1NC(=O)[C@H]1CCC[C@@H](N(C)C(=O)c2cccc(C(F)(F)F)c2)C1 | % | 38
Cc1ncn(C)c1NC(=O)[C@H]1CCC[C@@H](N(C)C(=O)c2cccc(C(F)(F)F)c2)C1 | % | 89
Cc1ncn(CC(F)F)c1-c1nnc([C@H]2CCC[C@@H](N(C)C(=O)c3cccc(C(F)(F)F)c3)C2)[nH]1 | % | 82
Cc1ncn(C)c1-c1nnc([C@@H]2C[C@H](N(C)C(=O)c3cccc(C(F)(F)F)c3)CCO2)[nH]1 | % | 22

###

- assay.method.text: Volume of distribution at steady state in rat at 1 mg/kg, iv or 10 mg/kg, po
- Format: ADME, organism-based
- condition.set: in vivo, read-out: Vdss
Listing of recorded Vd by entry.
assay.endpoint: Vd (L/kg)

molecule | assay.endpoint | measured.value
Cc1ncn(C)c1-c1nnc([C@H]2CCC[C@@H](N(C)C(=O)c3cccc(Cl)c3)C2)[nH]1 | Vd | 1
Cc1ncn(C)c1-c1nnc([C@@H]2C[C@H](N(C)C(=O)c3cccc(C(F)(F)F)c3)CCO2)[nH]1 | Vd | 1.1
Cc1ncn(C)c1NC(=O)[C@H]1CCC[C@@H](N(C)C(=O)c2cccc(C(F)(F)F)c2)C1 | Vd | 1.3

###

# inhibition at 10 µM per record follows
- test.target: CYP3A4 (Homo sapiens, UniProt P08684)
- Sequence (P08684 whole entry): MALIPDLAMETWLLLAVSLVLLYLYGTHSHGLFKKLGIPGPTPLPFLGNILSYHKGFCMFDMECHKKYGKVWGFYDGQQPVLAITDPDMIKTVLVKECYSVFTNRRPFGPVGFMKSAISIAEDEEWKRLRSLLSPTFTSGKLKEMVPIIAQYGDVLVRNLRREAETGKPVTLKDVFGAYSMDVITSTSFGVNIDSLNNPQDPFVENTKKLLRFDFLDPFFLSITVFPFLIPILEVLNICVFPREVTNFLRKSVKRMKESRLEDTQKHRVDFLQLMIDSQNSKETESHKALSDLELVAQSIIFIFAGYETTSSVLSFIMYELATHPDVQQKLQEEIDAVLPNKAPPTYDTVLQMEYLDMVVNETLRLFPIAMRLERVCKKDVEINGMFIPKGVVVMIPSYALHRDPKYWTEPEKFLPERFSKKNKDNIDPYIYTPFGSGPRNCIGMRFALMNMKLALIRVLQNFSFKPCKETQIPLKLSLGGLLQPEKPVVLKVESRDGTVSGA
- assay.method.text: Inhibition of CYP3A4 (unknown origin) at 10 uM relative to control
- Assay type: ADME

molecule | test.target | inhibition at 10 µM / %
Cc1ncn(C)c1-c1nnc([C@H]2CCC[C@@H](N(C)C(=O)c3cccc(Cl)c3)C2)[nH]1 | CYP3A4 (Homo sapiens, UniProt P08684) | 3.3
Cc1ncn(C)c1NC(=O)[C@H]1CCC[C@@H](N(C)C(=O)c2cccc(C(F)(F)F)c2)C1 | CYP3A4 (Homo sapiens, UniProt P08684) | 6.1
Cc1ncn(C)c1-c1nnc([C@@H]2C[C@H](N(C)C(=O)c3cccc(C(F)(F)F)c3)CCO2)[nH]1 | CYP3A4 (Homo sapiens, UniProt P08684) | 22

###

- assay.method.text: Drug metabolism in human microsomes assessed as drug turnover at 20 uM measured after 30 mins by LCMS analysis
- Format: ADME, Microsome
- condition.set: read-out: Drug metabolism

molecule | unit.of.measure | metabolised at 0.5 h, 20 µM
Cc1ncn(CC(F)(F)F)c1NC(=O)[C@H]1CCC[C@@H](N(C)C(=O)c2cccc(C(F)(F)F)c2)C1 | % | 62
CN(C(=O)c1cccc(Cl)c1)[C@@H]1CCO[C@H](c2nnc(-c3cnc4ccccn34)[nH]2)C1 | % | 29
Cc1ncn(CC2CN(C)C2)c1NC(=O)[C@H]1CCC[C@@H](N(C)C(=O)c2cccc(C(F)(F)F)c2)C1 | % | 20
Cc1ncn(CC(F)F)c1NC(=O)[C@H]1CCC[C@@H](N(C)C(=O)c2cccc(Cl)c2)C1 | % | 51
CN(C(=O)c1cccc(C(F)(F)F)c1)[C@@H]1CCO[C@H](c2nnc(-c3cnc4n3CCOC4)[nH]2)C1 | % | 12
Cc1ncc(-c2nnc([C@H]3CCC[C@@H](N(C)C(=O)c4cccc(C(F)(F)F)c4)C3)[nH]2)n1C | % | 69
Cc1ncn(C)c1-c1nnc([C@H]2CCC[C@@H](N(C)C(=O)c3cccc(C(F)(F)F)c3)C2)[nH]1 | % | 67
Cc1ncn(C)c1-c1nnc([C@@H]2C[C@H](N(C)C(=O)c3cccc(OC(F)(F)F)c3)CCO2)[nH]1 | % | 10
Cc1ncn(CC(F)(F)F)c1NC(=O)[C@H]1CCC[C@@H](N(C)C(=O)c2cccc(OC(F)(F)F)c2)C1 | % | 76

###

- assay.method.text: Clearance in rat at 1 mg/kg, iv or 10 mg/kg, po
- Assay type: ADME, organism-based
- condition.set: in vivo

molecule | clearance (mL/min/kg)
Cc1ncn(C)c1-c1nnc([C@@H]2C[C@H](N(C)C(=O)c3cccc(C(F)(F)F)c3)CCO2)[nH]1 | 22.1
Cc1ncn(C)c1NC(=O)[C@H]1CCC[C@@H](N(C)C(=O)c2cccc(C(F)(F)F)c2)C1 | 49.6
Cc1ncn(C)c1-c1nnc([C@H]2CCC[C@@H](N(C)C(=O)c3cccc(Cl)c3)C2)[nH]1 | 40.1

###

- assay.method.text: Toxicity in dog assessed as NOAEL administered as repeated dose for 1 month
- Design: species or system Canis lupus familiaris
- condition.set: in vivo

molecule | NOAEL at 1 month (mg/kg)
Cc1ncn(C)c1-c1nnc([C@@H]2C[C@H](N(C)C(=O)c3cccc(C(F)(F)F)c3)CCO2)[nH]1 | 180

###

- assay.method.text: Solubility of compound at pH 2 to 7.5
- Format: physicochemical
- condition.set: buffer
assay.endpoint: solubility

molecule | measured.value
Cc1ncn(C)c1-c1nnc([C@@H]2C[C@H](N(C)C(=O)c3cccc(C(F)(F)F)c3)CCO2)[nH]1 | > 2000 µg/mL

###

- assay.method.text: Drug metabolism in rat microsomes assessed as drug turnover at 20 uM measured after 30 mins by LCMS analysis
- Assay type: ADME, Microsome
- condition.set: read-out: Drug metabolism

molecule | metabolised at 0.5 h, 20 µM, %
Cc1ncn(CC(F)(F)F)c1NC(=O)[C@H]1CCC[C@@H](N(C)C(=O)c2cccc(C(F)(F)F)c2)C1 | 59
Cc1ncn(C)c1NC(=O)[C@H]1CCC[C@@H](N(C)C(=O)c2cccc(C(F)(F)F)c2)C1 | 41
Cc1ncn(CC(F)F)c1NC(=O)[C@H]1CCC[C@@H](N(C)C(=O)c2cccc(C(F)(F)F)c2)C1 | 59
Cc1ncn(CC2CC2)c1-c1nnc([C@@H]2C[C@H](N(C)C(=O)c3cccc(C(F)(F)F)c3)CCO2)[nH]1 | 64
